# System: PC-3 prostate
# experimentDescription: NCI-60 one-dose screen, 48 h
# assayConditions: 10 µM unless noted
The panel holds about 83,000 compounds, 20% with a hit somewhere; the sample as a whole holds those more often. Calls of active or inactive are those of the source. The calls were made as follows: active = growth percent below 10; inactive = the rest.
Please state which outcome applies, choosing from yes (1) = active, no (0) = inactive

Q: Hi, sorry to bother you, what did the test record for [Cl-].[Rh+3].c1ccc(-c2ccnc3c2ccc2c(-c4ccccc4)ccnc23)cc1.c1ccc(-c2ccnc3c2ccc2c(-c4ccccc4)ccnc23)cc1.c1ccc(-c2ccnc3c2ccc2c(-c4ccccc4)ccnc23)cc1 ?
A: no (0)

Q: Hi, sorry to bother you, what did the test record for CCSc1nc2ccccc2o1 ?
A: no (0)

Q: Hi, sorry to bother you, what did the test record for Cc1cccc2c(N)c3ccccc3nc12 ?
A: yes (1)

Q: Hi, sorry to bother you, what did the test record for O=C1c2ccccc2Cc2cccc(Cl)c21 ?
A: no (0)

Q: Hi, sorry to bother you, what did the test record for O=C(c1ccccc1)C(Br)[N+](=O)[O-] (centres undefined) ?
A: no (0)

Q: Hi, sorry to bother you, what did the test record for O=C1C(=O)c2cccnc2-c2ncccc21 ?
A: yes (1)

Q: Hi, sorry to bother you, what did the test record for NCCCN(CCCN)CCCNCc1c2ccccc2c(CNCCCN(CCCN)CCCN)c2ccccc12 ?
A: no (0)

Q: Hi, sorry to bother you, what did the test record for C1=C(c2ccccc2)c2ccccc2C1 ?
A: no (0)

Q: Hi, sorry to bother you, what did the test record for CN(Cc1ccccc1)c1ccc(SC#N)cc1 ?
A: no (0)
